- protocolText: refractive index (Na D-line) (dimensionless)
- testConditions: 298 K; 101.33 kPa; Liquid; Standard Abbe refractometry
± gives the expanded uncertainty stated by the source.
observedProperty: refractive index

> print(dat)
               compound  observedproperty   observedresult
1  CC(C)O [propan-2-ol]  refractive index  1.3758 ± 0.0007
2         CCO [ethanol]  refractive index    1.36 ± 0.0007
3    CCCO [propan-1-ol]  refractive index  1.3834 ± 0.0007
4             O [water]  refractive index  1.3327 ± 0.0007

Data origin, for the record: the NIST ThermoML archive (doi:10.1021/acs.jced.8b00181)
